biological target: Bek (Homo sapiens); experiment: Inhibitory activity against Bek-autophosphorylation using ELISA method in OCUM-2MD3 cells; type: cell-based; details: 1 hr with compound, read-out: IC50 (concentration necessary for inhibiting 50% of Bek-phosphorylation)
Sequence (P21802 431-767 limits assumed): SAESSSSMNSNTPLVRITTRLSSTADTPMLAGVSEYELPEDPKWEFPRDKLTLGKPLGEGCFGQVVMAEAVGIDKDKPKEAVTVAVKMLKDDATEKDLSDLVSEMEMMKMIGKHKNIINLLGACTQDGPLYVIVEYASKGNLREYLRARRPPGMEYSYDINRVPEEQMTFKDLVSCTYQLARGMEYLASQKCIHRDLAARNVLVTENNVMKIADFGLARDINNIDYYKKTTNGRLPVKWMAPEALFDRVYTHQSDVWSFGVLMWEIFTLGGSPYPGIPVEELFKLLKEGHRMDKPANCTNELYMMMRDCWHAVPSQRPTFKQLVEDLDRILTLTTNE
endpointLabel: IC50 (nM)

{"compound": "COc1cc2c(Oc3ccc(NC(=O)NCCC(C)(C)C)cc3)ccnc2cc1OCCCl", "endpointLabel": "IC50", "reading": 25}
{"compound": "COc1cc2c(Oc3ccc(Nc4ccc(C(C)(C)C)cc4)cc3)ccnc2cc1OCCCCN1CCOCC1", "endpointLabel": "IC50", "reading": 199}
{"compound": "COc1cc2c(Oc3ccc(NC(=O)NCCC(C)(C)C)c(Cl)c3)ccnc2cc1OCC(O)CN1CCCCC1 (stereo not drawn)", "endpointLabel": "IC50", "reading": 17.4}

(1) COc1cc2c(Oc3ccc(NC(=O)NCCC(C)(C)C)c(Cl)c3)ccnc2cc1OCCCN1CCN(C)CC1
(2) COc1cc2nccc(Oc3ccc(Nc4ccc(C(C)(C)C)cc4)c(F)c3)c2cc1OC
(3) COc1cc2c(Oc3ccc(Nc4ccc(C(C)(C)C)cc4)cc3)ccnc2cc1OCCNC1(CO)CCCC1
(4) COc1cc2nccc(Oc3ccc(Nc4ccc(-c5ccccc5)cc4)cc3)c2cc1OC
(5) COc1cc2c(Oc3ccc(NC(=O)NCCC(C)(C)C)cc3)ccnc2cc1OCCCN1CCC(CCO)CC1
Place the items in sequence of falling IC50. Please, when replying, give the labels in the order that was requested.
4, 3, 2, 1, 5
(4: 4580 nM, 3: 334 nM, 2: 195 nM, 1: 22.3 nM, 5: 12 nM)

----------
target: Bek (Homo sapiens); assay: Inhibitory activity against Bek-autophosphorylation using ELISA method in OCUM-2MD3 cells; conditions: 1 hr with compound, read-out: IC50 (concentration necessary for inhibiting 50% of Bek-phosphorylation)
endpointLabel: IC50 (µM)

(P) COc1cc2nccc(Oc3ccc(NC(=O)NCCC(C)(C)C)cc3C)c2cc1OC
(Q) COc1cc2c(Oc3ccc(Nc4ccc(C(C)(C)C)cc4)cc3F)ccnc2cc1OCCN1CCC(CO)CC1
Compare P and Q by numeric IC50 and name the larger one. State your choice using its label.
Q
(Q: 0.167 µM, P: 0.0667 µM)

(a) COc1cc2nccc(Oc3ccc(NC(=O)NCCC(C)(C)C)c(Cl)c3)c2cc1OC
(b) COc1cc2c(Oc3ccc(Nc4ccc(C(C)(C)C)cc4)c(Cl)c3)ccnc2cc1OCCCN1CCC(CO)CC1
(c) COc1cc2c(Oc3ccc(Nc4ccc(C(C)(C)C)cc4)cc3)ccnc2cc1OCCNC(C)CO (centres unmarked)
Put the molecules in ascending order of IC50. Put the labels in the requested order and list them out.
a, c, b

(A) COc1cc2c(Oc3ccc(NC(=O)NCCC(C)(C)C)c(F)c3)ccnc2cc1OCCN1CCC(CCO)CC1
(B) COc1cc2c(Oc3ccc(NC(=O)NCCC(C)(C)C)c(F)c3)ccnc2cc1OCCN1CCC(CO)CC1
# compare IC50 for A vs B ; return the one with the smaller value Let me know the label of the one you choose.
B
(B: 0.0227 µM, A: 0.0384 µM)

----------
molecular target: Bek (Homo sapiens); assay: Inhibitory activity against Bek-autophosphorylation using ELISA method in OCUM-2MD3 cells; conditions: 1 hr with compound, read-out: IC50 (concentration necessary for inhibiting 50% of Bek-phosphorylation)
pIC50: −log10 of the molar value. Structures can show the parent of a compound that is named as a salt.
endpointLabel: pIC50

{"compound": "COc1cc2nccc(Oc3ccc(NC(=O)NCCC(C)(C)C)cc3)c2cc1OCCCN1CCC(O)CC1", "reading": 6.61}

(1) COc1cc2c(Oc3ccc(NC(=O)NCCC(C)(C)C)cc3)ccnc2cc1OCCCN1CCN(C)CC1 [Compound 156, hydrochloride]
(2) COc1cc2c(Oc3ccc(NC(=O)NCCC(C)(C)C)cc3)ccnc2cc1OCCN(CCO)Cc1ccccc1
Of 1 and 2 , which shows the smaller pIC50 value? Refer to your chosen item by its label in the answer.
2
(2: 6.81, 1: 7.72)
